test system: Mus musculus; test: Antiinflammatory activity in mouse assessed as inhibition of xylene-induced ear edema at 100 mg/kg, ip after 0.5 hrs relative to control; type: functional; settings: route intraperitoneal

>  <Compound>
Nc1nnc2c3ccccc3c(Oc3ccc(Br)cc3)nn12

>  <inhibition in vivo at 100 mg/kg, %>
48.4

$$$$
>  <Compound>
COc1ccc(Oc2nn3c(N)nnc3c3ccccc23)cc1

>  <inhibition in vivo at 100 mg/kg, %>
44

$$$$
>  <Compound>
Nc1nnc2c3ccccc3c(Oc3ccc(Cl)cc3Cl)nn12

>  <inhibition in vivo at 100 mg/kg, %>
40.4

$$$$
>  <Compound>
CCCCOc1nn2c(N)nnc2c2ccccc12

>  <inhibition in vivo at 100 mg/kg, %>
67.6

$$$$
>  <Compound>
Nc1nnc2c3ccccc3c(Oc3cccc(Cl)c3)nn12

>  <inhibition in vivo at 100 mg/kg, %>
68.8

$$$$
>  <Compound>
Nc1ccc(Oc2nn3c(N)nnc3c3ccccc23)cc1

>  <inhibition in vivo at 100 mg/kg, %>
83

$$$$
>  <Compound>
Nc1nnc2c3ccccc3c(Oc3ccc(F)cc3)nn12

>  <inhibition in vivo at 100 mg/kg, %>
48.8

$$$$
>  <Compound>
CC(C)Cc1ccc(C(C)C(=O)O)cc1 (stereo not given) [IBUPROFEN]

>  <inhibition in vivo at 100 mg/kg, %>
61.2

$$$$
>  <Compound>
Cc1cccc(Oc2nn3c(N)nnc3c3ccccc23)c1

>  <inhibition in vivo at 100 mg/kg, %>
68

$$$$
>  <Compound>
CCCCCCOc1nn2c(N)nnc2c2ccccc12

>  <inhibition in vivo at 100 mg/kg, %>
39.5

$$$$
>  <Compound>
Nc1cccc(Oc2nn3c(N)nnc3c3ccccc23)c1

>  <inhibition in vivo at 100 mg/kg, %>
68

$$$$
>  <Compound>
Cc1ccccc1Oc1nn2c(N)nnc2c2ccccc12

>  <inhibition in vivo at 100 mg/kg, %>
68.3

$$$$
>  <Compound>
CCCCCCCCOc1nn2c(N)nnc2c2ccccc12

>  <inhibition in vivo at 100 mg/kg, %>
58

$$$$
>  <Compound>
Nc1nnc2c3ccccc3c(Oc3ccccc3Cl)nn12

>  <inhibition in vivo at 100 mg/kg, %>
81.2

$$$$
>  <Compound>
Nc1nnc2c3ccccc3c(Oc3ccccc3)nn12

>  <inhibition in vivo at 100 mg/kg, %>
55

$$$$
>  <Compound>
Cc1ccc(Oc2nn3c(N)nnc3c3ccccc23)cc1

>  <inhibition in vivo at 100 mg/kg, %>
52.7

$$$$
>  <Compound>
Nc1ccccc1Oc1nn2c(N)nnc2c2ccccc12

>  <inhibition in vivo at 100 mg/kg, %>
38.4

$$$$
>  <Compound>
CCCCCCCOc1nn2c(N)nnc2c2ccccc12

>  <inhibition in vivo at 100 mg/kg, %>
65.7

$$$$
>  <Compound>
CC(C)Oc1nn2c(N)nnc2c2ccccc12

>  <inhibition in vivo at 100 mg/kg, %>
39.4

$$$$
>  <Compound>
Nc1nnc2c3ccccc3c(Oc3ccc(Cl)cc3)nn12

>  <inhibition in vivo at 100 mg/kg, %>
75

$$$$
